Quick list: growth per entry.
# Tested on: NCI-H522 lung
# assayInfo: NCI-60 one-dose screen, 48 h (100 = growth as untreated, 0 = no growth, -100 = all killed)
# conditionDetails: 10 µM
The panel holds about 83,000 compounds, 20% with a hit somewhere; the sample as a whole holds those more often.

molecule	growth / %
C[C@@H]1C[C@H]2C(=O)O[C@@H](C)C(NC(=O)[C@H](Cc3cc(F)cc(F)c3)NC(=O)Nc3ccc(OS(=O)(=O)F)cc3)C(=O)N3CCC[C@H]3C(=O)N3CCO[C@H](C)[C@H]3C(=O)N[C@@H](CO)C(=O)N2C1 (stereo partly drawn)	20.3
COc1cccc2c1cc([N+](=O)[O-])c1c(C(=O)O)cc3c(c12)OCO3	95.9
CC1=C[C@H]2O[C@@H]3C[C@H]4OC(=O)/C=C\C=C\[C@H]([C@@H](C)O)OCC[C@@H](C)[C@H](O)C(=O)OC[C@@]2(CC1)[C@]4(C)[C@]31CO1	-43.4

Hello, the source for this data is PubChem BioAssay (NCI), in case you need it.
